target: PIK3CD (Human) (UniProt O00329); test: Enzyme Assay
Sequence (O00329 whole entry, looked up): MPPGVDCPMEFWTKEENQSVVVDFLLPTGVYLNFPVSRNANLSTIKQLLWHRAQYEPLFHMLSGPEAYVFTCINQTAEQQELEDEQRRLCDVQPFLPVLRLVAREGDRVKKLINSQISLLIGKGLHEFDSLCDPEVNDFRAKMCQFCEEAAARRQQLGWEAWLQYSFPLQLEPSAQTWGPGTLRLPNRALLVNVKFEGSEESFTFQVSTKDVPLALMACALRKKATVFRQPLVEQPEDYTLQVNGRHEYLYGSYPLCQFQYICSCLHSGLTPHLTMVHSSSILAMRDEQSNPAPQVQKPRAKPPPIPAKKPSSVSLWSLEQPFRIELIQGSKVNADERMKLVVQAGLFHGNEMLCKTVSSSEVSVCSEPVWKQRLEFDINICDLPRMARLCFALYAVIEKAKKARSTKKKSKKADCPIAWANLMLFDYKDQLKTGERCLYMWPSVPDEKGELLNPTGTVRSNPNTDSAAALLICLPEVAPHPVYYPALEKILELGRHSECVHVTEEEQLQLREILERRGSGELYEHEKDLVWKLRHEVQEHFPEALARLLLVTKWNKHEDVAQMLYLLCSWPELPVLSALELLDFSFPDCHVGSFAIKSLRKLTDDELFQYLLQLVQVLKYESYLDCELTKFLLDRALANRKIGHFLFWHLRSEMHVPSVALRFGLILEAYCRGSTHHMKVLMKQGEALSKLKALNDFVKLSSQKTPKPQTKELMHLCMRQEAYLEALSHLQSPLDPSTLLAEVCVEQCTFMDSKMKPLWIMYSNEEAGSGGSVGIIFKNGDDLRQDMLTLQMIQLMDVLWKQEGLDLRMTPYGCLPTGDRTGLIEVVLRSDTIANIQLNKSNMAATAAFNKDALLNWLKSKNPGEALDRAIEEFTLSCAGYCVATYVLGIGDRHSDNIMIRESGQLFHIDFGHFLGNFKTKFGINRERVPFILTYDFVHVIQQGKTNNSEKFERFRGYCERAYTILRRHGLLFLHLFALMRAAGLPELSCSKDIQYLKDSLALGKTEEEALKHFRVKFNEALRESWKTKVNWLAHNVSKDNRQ
pIC50: −log10 of the molar value.
Listing: pIC50 of selected compounds

input smiles	tgt	pIC50
CNCCn1c([C@H](C)NC(=O)c2c(N)nn3cccnc23)cc2cccc(Cl)c2c1=O	PIK3CD (Human) (UniProt O00329)	> 7.00
C[C@H](NC(=O)c1nccnc1N)c1nc2cccc(Cl)c2c(=O)n1-c1ccccc1	PIK3CD (Human) (UniProt O00329)	> 7.00
C[C@H](NC(=O)c1c(N)nn2cccnc12)c1nc2cccc(Cl)c2c(=O)n1-c1ccccc1	PIK3CD (Human) (UniProt O00329)	> 7.00
C[C@H](NC(=O)c1nc(-c2cnn(C)c2)cnc1N)c1cc2cccc(Cl)c2c(=O)n1-c1ccccc1	PIK3CD (Human) (UniProt O00329)	≤ 5.00
C[C@H](NC(=O)c1c(N)nn2cccnc12)c1cc2cccc(Cl)c2c(=O)n1-c1ccccc1	PIK3CD (Human) (UniProt O00329)	6.00 to 7.00
C[C@H](NC(=O)c1c(N)nn2cccnc12)c1cc2cccc(Cl)c2c(=O)n1CC(=O)N(C)C	PIK3CD (Human) (UniProt O00329)	≤ 5.00
C[C@H](NC(=O)c1c(N)nn2cccnc12)c1cc2cccc(Cl)c2c(=O)n1C	PIK3CD (Human) (UniProt O00329)	6.00 to 7.00
C[C@H](NC(=O)c1c(N)nn2cccnc12)c1cc2cccc(NC3CCCCC3)c2c(=O)n1-c1ccccc1	PIK3CD (Human) (UniProt O00329)	≤ 5.00
CC[C@H](NC(=O)c1c(N)nn2cccnc12)c1cc2cccc(Cl)c2c(=O)n1-c1ccccc1	PIK3CD (Human) (UniProt O00329)	> 7.00
C[C@H](NC(=O)c1c(N)nn2cccnc12)c1cc2cccc(Cl)c2c(=O)n1CCN(C)C	PIK3CD (Human) (UniProt O00329)	> 7.00
C[C@H](NC(=O)c1nc(C#N)cnc1N)c1cc2cccc(Cl)c2c(=O)n1-c1ccccc1	PIK3CD (Human) (UniProt O00329)	6.00 to 7.00
C[C@H](NC(=O)c1nc(-c2cccc(NS(C)(=O)=O)c2)cnc1N)c1cc2cccc(N3CCOCC3)c2c(=O)n1-c1ccccc1	PIK3CD (Human) (UniProt O00329)	≤ 5.00
CC(C)c1ccnc2c(C(=O)N[C@@H](C)c3cc4cccc(Cl)c4c(=O)n3-c3ccccc3)c(N)nn12	PIK3CD (Human) (UniProt O00329)	≤ 5.00
C[C@H](NC(=O)c1nc(-c2cscn2)cnc1N)c1cc2cccc(Cl)c2c(=O)n1-c1ccccc1	PIK3CD (Human) (UniProt O00329)	≤ 5.00
C[C@H](NC(=O)c1c(N)nn2cccnc12)c1cc2cccc(CN(C)C)c2c(=O)n1-c1ccccc1	PIK3CD (Human) (UniProt O00329)	> 7.00
C[C@H](NC(=O)c1nc(-c2csc(S(C)(=O)=O)n2)cnc1N)c1cc2cccc(Cl)c2c(=O)n1-c1ccccc1	PIK3CD (Human) (UniProt O00329)	≤ 5.00
Cc1ccn2nc(N)c(C(=O)N[C@@H](C)c3cc4cccc(Cl)c4c(=O)n3-c3ccccc3)c2n1	PIK3CD (Human) (UniProt O00329)	6.00 to 7.00
C[C@H](NC(=O)c1c(N)nn2cccnc12)c1cc2cccc(C#CCNC(=O)C3CC(=O)CC(=O)C3)c2c(=O)n1-c1ccccc1	PIK3CD (Human) (UniProt O00329)	6.00 to 7.00
CC(C)Oc1ccc(-c2cnc(N)c(C(=O)N[C@@H](C)c3cc4cccc(Cl)c4c(=O)n3-c3ccccc3)n2)cc1Cl	PIK3CD (Human) (UniProt O00329)	≤ 5.00
C[C@H](NC(=O)c1cncc2cccnc12)c1cc2cccc(Cl)c2c(=O)n1-c1ccccc1	PIK3CD (Human) (UniProt O00329)	6.00 to 7.00
C[C@H](NC(=O)c1nc(-c2cncc(NS(C)(=O)=O)c2)cnc1N)c1cc2cccc(Cl)c2c(=O)n1-c1ccccc1	PIK3CD (Human) (UniProt O00329)	6.00 to 7.00
C[C@H](NC(=O)c1c(N)nn2cccnc12)c1cc2cccc(Cl)c2c(=O)n1C1CC1	PIK3CD (Human) (UniProt O00329)	6.00 to 7.00
C[C@H](NC(=O)c1nc(-c2cccc(S(=O)(=O)N3CCOCC3)c2)cnc1N)c1cc2cccc(Cl)c2c(=O)n1-c1ccccc1	PIK3CD (Human) (UniProt O00329)	≤ 5.00
C[C@H](NC(=O)c1nccnc1N)c1cc2cccc(Cl)c2c(=O)n1-c1ccccc1	PIK3CD (Human) (UniProt O00329)	> 7.00
C[C@H](NC(=O)c1c(N)nn2cccnc12)c1cc2cccc(-c3ccc(=O)n(C)c3)c2c(=O)n1-c1ccccc1	PIK3CD (Human) (UniProt O00329)	6.00 to 7.00
COc1cc(-c2cccc3nc([C@H](C)NC(=O)c4c(N)nn5cccnc45)n(-c4ccccc4)c(=O)c23)ccn1	PIK3CD (Human) (UniProt O00329)	6.00 to 7.00
C[C@H](NC(=O)c1nc(-c2cccc(O)c2)cnc1N)c1cc2cccc(Cl)c2c(=O)n1-c1ccccc1	PIK3CD (Human) (UniProt O00329)	≤ 5.00
C[C@H](NC(=O)c1c(N)nn2cccnc12)c1cc2cccc(N3CCOCC3)c2c(=O)n1-c1ccccc1	PIK3CD (Human) (UniProt O00329)	≤ 5.00
C[C@H](NC(=O)c1nccnc1N)c1cc2cccc(-c3cc[nH]n3)c2c(=O)n1-c1ccccc1	PIK3CD (Human) (UniProt O00329)	6.00 to 7.00
C[C@H](NC(=O)c1c(N)nn2cccnc12)c1cc2cccc(N(C)C)c2c(=O)n1-c1ccccc1	PIK3CD (Human) (UniProt O00329)	≤ 5.00
Cc1c([C@H](C)NC(=O)c2c(N)nn3cccnc23)n(-c2ccccc2)c(=O)c2c(F)cccc12	PIK3CD (Human) (UniProt O00329)	6.00 to 7.00
C[C@H](NC(=O)c1c(N)nn2c1NCCC2)c1cc2cccc(Cl)c2c(=O)n1-c1ccccc1	PIK3CD (Human) (UniProt O00329)	≤ 5.00
C[C@H](NC(=O)c1c(N)nn2cccnc12)c1cc2cccc(Cl)c2c(=O)n1CCN(C)S(C)(=O)=O	PIK3CD (Human) (UniProt O00329)	6.00 to 7.00

meta.source: the Kinase Knowledgebase extract (Sharma et al. 2016)
